- SYSTEM NAME: p15-EC RNH domain fragment (Human immunodeficiency virus type 1 group M subtype B, UniProt P04585, DELINS1094-1102[…])
- ASSAY NAME: NMR 1H-15N HSQC chemical shift titration, dissociation constant
- Format: binding, HIV-1 / Escherichia coli chimera
- ASSAY CONDITIONS: read-out: Inhibitor dissociation constant, KD; residue Y75 (501), + 20 mM Mg2+
MEASURED PROPERTY: Kd

1. O=C(O)c1ccc(-c2cccc(/C=N/NC(=O)c3cc(O)c(O)c(O)c3)c2)cc1 ... 262 µM

====

- SYSTEM NAME: p15-EC RNH domain fragment (Human immunodeficiency virus type 1 group M subtype B, UniProt P04585, DELINS1094-1102[…])
- ASSAY NAME: NMR 1H-15N HSQC chemical shift titration, dissociation constant
- Assay type: binding, HIV-1 / Escherichia coli chimera
- ASSAY CONDITIONS: read-out: Inhibitor dissociation constant, KD; residue Q74 (500), + 20 mM Mg2+
MEASURED PROPERTY: Kd

1) O=C(O)c1ccc(-c2cccc(/C=N/NC(=O)c3cc(O)c(O)c(O)c3)c2)cc1 ... 246 µM

====

- SYSTEM NAME: p15-EC RNH domain fragment (Human immunodeficiency virus type 1 group M subtype B, UniProt P04585, DELINS1094-1102[…])
- ASSAY NAME: NMR 1H-15N HSQC chemical shift titration, dissociation constant
- Assay type: binding, HIV-1 / Escherichia coli chimera
- ASSAY CONDITIONS: read-out: Inhibitor dissociation constant, KD; residue V124 (536), no Mg2+
MEASURED PROPERTY: Kd (µM)

1) O=C(O)c1ccc(-c2cccc(/C=N/NC(=O)c3cc(O)c(O)c(O)c3)c2)cc1 ... 242

====

- SYSTEM NAME: p15-EC RNH domain fragment (Human immunodeficiency virus type 1 group M subtype B, UniProt P04585, DELINS1094-1102[…])
- ASSAY NAME: NMR 1H-15N HSQC chemical shift titration, dissociation constant
- Type: binding, HIV-1 / Escherichia coli chimera
- ASSAY CONDITIONS: read-out: Inhibitor dissociation constant, KD; residue I79 (505), + 20 mM Mg2+
pKd: −log10 of the molar value.
MEASURED PROPERTY: pKd

1. O=C(O)c1ccc(-c2cccc(/C=N/NC(=O)c3cc(O)c(O)c(O)c3)c2)cc1 [BHMP07] ... 3.43

====

- SYSTEM NAME: p15-EC RNH domain fragment (Human immunodeficiency virus type 1 group M subtype B, UniProt P04585, DELINS1094-1102[…])
- ASSAY NAME: NMR 1H-15N HSQC chemical shift titration, dissociation constant
- Type: binding, HIV-1 / Escherichia coli chimera
- ASSAY CONDITIONS: read-out: Inhibitor dissociation constant, KD; residue I114 (526), no Mg2+
MEASURED PROPERTY: Kd (µM)

1) O=C(O)c1ccc(-c2cccc(/C=N/NC(=O)c3cc(O)c(O)c(O)c3)c2)cc1 ... 217

====

- SYSTEM NAME: p15-EC RNH domain fragment (Human immunodeficiency virus type 1 group M subtype B, UniProt P04585, DELINS1094-1102[…])
- ASSAY NAME: NMR 1H-15N HSQC chemical shift titration, dissociation constant
- Assay type: binding, HIV-1 / Escherichia coli chimera
- ASSAY CONDITIONS: read-out: Inhibitor dissociation constant, KD; residue K93, no Mg2+
MEASURED PROPERTY: Kd (µM)

1) O=C(O)c1ccc(-c2cccc(/C=N/NC(=O)c3cc(O)c(O)c(O)c3)c2)cc1 ... 194
